Where do the numbers come from? From patent US20160297884A1.

- tested-on: T1, cynomolgus monkey BCMA (cynomolgus monkey, UniProt A0A2K5UD97 1-53)
- T1 construct: Soluble analyte in SPR; construct not described; also called cyBCMA; Cyno BCMA
- procedure-text: SPR, IgG immobilised, 37 C
measurement-kind: koff (s⁻¹)
Record the value in s⁻¹, omitting the unit from your answer.

Example results:
binder | display-unit | measured-result
L3.PY/L1.AH/H2.DY (antibody, V domains shown, IgG) VH: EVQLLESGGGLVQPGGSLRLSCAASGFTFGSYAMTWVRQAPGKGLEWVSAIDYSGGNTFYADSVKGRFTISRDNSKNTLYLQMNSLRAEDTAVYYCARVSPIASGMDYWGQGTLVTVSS VL: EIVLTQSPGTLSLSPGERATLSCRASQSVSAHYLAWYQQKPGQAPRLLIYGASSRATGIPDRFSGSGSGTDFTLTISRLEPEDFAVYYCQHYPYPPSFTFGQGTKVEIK | s⁻¹ | 0.00451
L3.PY/H2.QL (antibody, V domains shown, IgG) VH: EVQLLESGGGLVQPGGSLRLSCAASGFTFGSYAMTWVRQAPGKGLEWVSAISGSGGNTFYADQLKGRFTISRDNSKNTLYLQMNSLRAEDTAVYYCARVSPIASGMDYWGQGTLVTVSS VL: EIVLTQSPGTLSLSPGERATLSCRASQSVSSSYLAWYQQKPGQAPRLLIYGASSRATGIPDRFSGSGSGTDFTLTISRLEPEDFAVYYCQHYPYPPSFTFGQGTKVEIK | s⁻¹ | 0.0126

Here is the next item to consider.
Recorded result, L3.PY/L1.PS/H2.QL (antibody, V domains shown, IgG) VH: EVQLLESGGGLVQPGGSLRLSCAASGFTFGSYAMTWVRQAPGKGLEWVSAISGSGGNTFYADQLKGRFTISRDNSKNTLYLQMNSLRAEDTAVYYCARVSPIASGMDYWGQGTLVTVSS VL: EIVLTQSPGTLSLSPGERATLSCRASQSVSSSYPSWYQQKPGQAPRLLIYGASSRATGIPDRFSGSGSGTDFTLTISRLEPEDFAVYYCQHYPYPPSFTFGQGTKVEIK , koff: 0.000636
